- System: IL-10 production of LPS-activated monocytes
- METHOD DESCRIPTION: Increase in IL-10 production of LPS-activated human monocytes (ELISA of culture supernatant)
- Format: cell-based
- PARTICULARS: 20 μg/ml LPS from E. coli, 24 hours
Measured Increase in IL-10 Production Maximum (%), listed per entry.

>  <MOLECULE>
Br.O=C1CCC(N2C=Nc3cc(Cl)ccc3C2)C(=O)N1 (stereo not drawn)

>  <READOUT UNIT>
%

>  <Increase in IL-10 Production Maximum (%)>
360

$$$$
>  <MOLECULE>
O=C1CCC(N2C=Nc3cccc(Cl)c3C2)C(=O)N1 (stereo not drawn)

>  <READOUT UNIT>
%

>  <Increase in IL-10 Production Maximum (%)>
365

$$$$
>  <MOLECULE>
O=C1CCC(N2C(=O)c3ccccc3C2=O)C(=O)N1 (stereo not drawn) [Thalidomide, thalidomide, reference compound]

>  <READOUT UNIT>
%

>  <Increase in IL-10 Production Maximum (%)>
180

$$$$
>  <MOLECULE>
Br.O=C1CCC(N2C=Nc3ccccc3C2)C(=O)N1 (stereo not drawn)

>  <READOUT UNIT>
%

>  <Increase in IL-10 Production Maximum (%)>
230

$$$$
>  <MOLECULE>
O=C1CCC(N2C=Nc3cc(F)c(F)cc3C2)C(=O)N1 (stereo not drawn)

>  <READOUT UNIT>
%

>  <Increase in IL-10 Production Maximum (%)>
263

$$$$
>  <MOLECULE>
O=C1CCC(N2C=Nc3cccc([N+](=O)[O-])c3C2)C(=O)N1 (stereo not drawn)

>  <READOUT UNIT>
%

>  <Increase in IL-10 Production Maximum (%)>
211

$$$$
>  <MOLECULE>
Cl.O=C1CCC(N2C=Nc3cc(F)ccc3C2)C(=O)N1 (stereo not drawn)

>  <READOUT UNIT>
%

>  <Increase in IL-10 Production Maximum (%)>
420

$$$$
>  <MOLECULE>
Cc1cccc2c1CN(C1CCC(=O)NC1=O)C=N2 (stereo not drawn)

>  <READOUT UNIT>
%

>  <Increase in IL-10 Production Maximum (%)>
202

$$$$
>  <MOLECULE>
O=C1CCC(N2C=Nc3cccc(F)c3C2)C(=O)N1 (stereo not drawn)

>  <READOUT UNIT>
%

>  <Increase in IL-10 Production Maximum (%)>
316

$$$$
